experimentalDetails: total protein half-life in vivo (active degradation + dilution); higher = more stable protein
conditionDetails: wild type E. coli NCM3722; growth: N-lim chemostat; doubling time 12 h
Catalogue of sequences with associated total protein half-life in vivo
readoutName: total protein half-life in vivo (h)

INSERT INTO measurements (inputsequence, readoutname, outputunit, observed) VALUES
  ('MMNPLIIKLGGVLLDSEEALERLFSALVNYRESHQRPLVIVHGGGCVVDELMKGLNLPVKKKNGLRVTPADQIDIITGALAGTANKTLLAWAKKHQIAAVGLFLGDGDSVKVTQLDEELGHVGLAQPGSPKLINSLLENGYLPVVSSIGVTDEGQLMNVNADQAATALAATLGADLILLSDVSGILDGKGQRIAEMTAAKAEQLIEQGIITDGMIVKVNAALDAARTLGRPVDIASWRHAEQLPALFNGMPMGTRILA [P0A6C8]', 'total protein half-life in vivo', 'h', 4.81),
  ('MTVKQTVEITNKLGMHARPAMKLFELMQGFDAEVLLRNDEGTEAEANSVIALLMLDSAKGRQIEVEATGPQEEEALAAVIALFNSGFDED [P0A9N0]', 'total protein half-life in vivo', 'h', 3.97),
  ('MKTSVRIGAFEIDDGELHGESPGDRTLTIPCKSDPDLCMQLDAWDAETSIPALLNGEHSVLYRTRYDQQSDAWIMRLA', 'total protein half-life in vivo', 'h', 0.89),
  ('MILTDPEWQAVLLSLKVSSLAVLFSLPFGIFFAWLLVRCTFPGKALLDSVLHLPLVLPPVVVGYLLLVSMGRRGFIGERLYDWFGITFAFSWRGAVLAAAVMSFPLMVRAIRLALEGVDVKLEQAARTLGAGRWRVFFTITLPLTLPGIIVGTVLAFARSLGEFGATITFVSNIPGETRTIPSAMYTLIQTPGGESGAARLCIISIALAMISLLISEWLARISRERAGR [P0AF01]', 'total protein half-life in vivo', 'h', 9.16),
  ('MQILLANPRGFCAGVDRAISIVENALAIYGAPIYVRHEVVHNRYVVDSLRERGAIFIEQISEVPDGAILIFSAHGVSQAVRNEAKSRDLTVFDATCPLVTKVHMEVARASRRGEESILIGHAGHPEVEGTMGQYSNPEGGMYLVESPDDVWKLTVKNEEKLSFMTQTTLSVDDTSDVIDALRKRFPKIVGPRKDDICYATTNRQEAVRALAEQAEVVLVVGSKNSSNSNRLAELAQRMGKRAFLIDDAKDIQEEWVKEVKCVGVTAGASAPDILVQNVVARLQQLGGGEAIPLEGREENIVFEVPKELRVDIREVD', 'total protein half-life in vivo', 'h', 3.69),
  ('MHPMLNIAVRAARKAGNLIAKNYETPDAVEASQKGSNDFVTNVDKAAEAVIIDTIRKSYPQHTIITEESGELEGTDQDVQWVIDPLDGTTNFIKRLPHFAVSIAVRIKGRTEVAVVYDPMRNELFTATRGQGAQLNGYRLRGSTARDLDGTILATGFPFKAKQYATTYINIVGKLFNECADFRRTGSAALDLAYVAAGRVDGFFEIGLRPWDFAAGELLVREAGGIVSDFTGGHNYMLTGNIVAGNPRVVKAMLANMRDELSDALKR [P0ADG4]', 'total protein half-life in vivo', 'h', 10.2),
  ('MTMTRLKISKTLLAVMLTSAVATGSAYAENNAQTTNESAGQKVDSSMNKVGNFMDDSAITAKVKAALVDHDNIKSTDISVKTDQKVVTLSGFVESQAQAEEAVKVAKGVEGVTSVSDKLHVRDAKEGSVKGYAGDTATTSEIKAKLLADDIVPSRHVKVETTDGVVQLSGTVDSQAQSDRAESIAKAVDGVKSVKNDLKTK [P0AFH8]', 'total protein half-life in vivo', 'h', 11.3),
  ('MSNQEPATILLIDDHPMLRTGVKQLISMAPDITVVGEASNGEQGIELAESLDPDLILLDLNMPGMNGLETLDKLREKSLSGRIVVFSVSNHEEDVVTALKRGADGYLLKDMEPEDLLKALHQAAAGEMVLSEALTPVLAASLRANRATTERDVNQLTPRERDILKLIAQGLPNKMIARRLDITESTVKVHVKHMLKKMKLKSRVEAAVWVHQERIF [P0AF28]', 'total protein half-life in vivo', 'h', 7.26);
